Ref: patent US20120213794A1

- targetSystem: T1, human PCSK9 (human, UniProt Q8NBP7 31-692)
- T1 construct: Secreted PCSK9 is autocleaved into prodomain and mature chain, and a His-tag is named for the HEK293 constructs; also called hPCSK9; proprotein convertase subtilisin-kexin type 9
- T1 sequence (Q8NBP7 31-692 limits assumed): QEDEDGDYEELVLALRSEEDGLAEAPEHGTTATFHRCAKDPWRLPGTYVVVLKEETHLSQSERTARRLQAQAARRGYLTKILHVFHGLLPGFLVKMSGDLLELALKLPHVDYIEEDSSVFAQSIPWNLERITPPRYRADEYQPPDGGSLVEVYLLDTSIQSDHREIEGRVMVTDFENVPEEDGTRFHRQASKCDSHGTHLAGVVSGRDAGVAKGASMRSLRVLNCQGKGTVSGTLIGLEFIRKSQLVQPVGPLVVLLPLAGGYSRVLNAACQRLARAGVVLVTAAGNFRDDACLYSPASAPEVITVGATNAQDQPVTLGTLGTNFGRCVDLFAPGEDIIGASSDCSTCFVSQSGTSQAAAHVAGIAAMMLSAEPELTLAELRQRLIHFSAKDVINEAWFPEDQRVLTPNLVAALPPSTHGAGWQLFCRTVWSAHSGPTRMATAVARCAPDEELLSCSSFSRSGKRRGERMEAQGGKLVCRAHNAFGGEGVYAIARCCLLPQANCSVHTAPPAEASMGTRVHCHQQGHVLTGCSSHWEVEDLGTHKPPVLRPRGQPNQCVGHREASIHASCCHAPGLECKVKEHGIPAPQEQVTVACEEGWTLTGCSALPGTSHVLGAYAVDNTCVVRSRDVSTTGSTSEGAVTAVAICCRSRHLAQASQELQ
- procedureSummary: SPR (Biacore), IgG captured by anti-human IgG, PCSK9 injected at 3.75-60 nM
valueKind: Kd (nM)
Please respond with the number in nM and leave the unit unwritten.

# count of solved cases: 2
AX114 IgG (antibody, V domains shown, Purified IgG; also called AX114-IgG2) VH: EVQLLESGGGLVQPGGSLRLSCKASGYTFSSYGMYWVRQAPGKGLEWIGWIDPGSGGTKYNEKFKGKATISRDNSKNTLYLQMNSLRAEDTAVYYCARERYGYYFDYWGQGTLVTVSS VL: EIVLTQSPATLSLSPGERATITCRASQYVGTYLNWYQQKPGQAPRLLIYDASNRATGIPARFSGSGSGTDFTLTISSLEPEDFAVYYCQVWDSSPPVAFGGGTKVEIK; 24
AX213 IgG (antibody, V domains shown) VH: EVQLLESGGGLVQPGGSLRLSCKASGYTFSRYGINWVRQAPGKGLEWIGRIDPGNGGTRYNEKFKGKATISRDNSKNTLYLQMNSLRAEDTAVYYCARANDGYSFDYWGQGTLVTVSS VL: EIVLTQSPATLSLSPGERATITCRASQYVGSYLNWYQQKPGQAPRLLIYDASNRATGIPARFSGSGSGTDFTLTISSLEPEDFAVYYCQVWDSSPPVVFGGGTKVEIKR; 2.07

The record that follows has no Kd shown yet.
I'd like to know its Kd. The binder in question is AX211 IgG (antibody, V domains shown, Purified IgG) VH: QVQLLESGGGLVQPGGSLRLSCKASGYTFSRQGFTWVRQAPGKGLEWIGWIDPGNGGTRYNEKFKGKATISRDNSKNTLYLQMNSLRAEDTAVYYCARYRVGYSLDYWGQGTLVTVSS VL: EIVLTQSPATLSLSPGERATITCRASQYVGSYLNWYQQKPGQAPRLLIYDASNRATGIPARFSGSGSGTDFTLTISSLEPEDFAVYYCQVWDSSPPVVFGGGTKVEIK
1.63
